The origin of these recorded values is paper PMC10397247.

Molecular target: T1, 4H575-bA
T1 chain: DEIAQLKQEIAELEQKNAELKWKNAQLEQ
Assay: two-hybrid library CCNG1;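 also: natural log of median RNA to DNA barcode read ratio; higher means stronger binding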
interaction score values for the binders below.
Please reply with the value in numeric form only.

Observe how each entry below is paired with its result.
{"columns": ["Binder", "Result Type", "Experimental Result"],
 "data": [
  ["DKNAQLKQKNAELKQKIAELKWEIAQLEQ [4H4073-bA]", "interaction score", -1.51],
  ["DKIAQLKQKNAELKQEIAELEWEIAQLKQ [4H3010-bA]", "interaction score", -0.532],
  ["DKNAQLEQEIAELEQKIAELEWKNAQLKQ [4H3112-bA]", "interaction score", -0.587],
  ["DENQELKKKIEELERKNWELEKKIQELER [4H1845-bH]", "interaction score", -1.1],
  ["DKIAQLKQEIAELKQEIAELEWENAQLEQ [4H2627-bA]", "interaction score", 0.64],
  ["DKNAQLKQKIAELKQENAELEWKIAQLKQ [4H3926-bA]", "interaction score", 0.34],
  ["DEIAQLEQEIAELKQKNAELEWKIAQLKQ [4H118-bA]", "interaction score", 0.369],
  ["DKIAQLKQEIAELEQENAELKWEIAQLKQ [4H2586-bA]", "interaction score", -0.515]
]}

Problem: Please report the recorded interaction score for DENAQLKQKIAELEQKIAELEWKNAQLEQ [4H1831-bA] .
Result: -0.581

Problem: Follow-up item: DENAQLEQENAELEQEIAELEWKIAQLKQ [4H1158-bA]
Result: 0.324

Problem: Follow-up item: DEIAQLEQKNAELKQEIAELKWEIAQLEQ [4H457-bA]
Result: -1.69

Problem: Follow-up item: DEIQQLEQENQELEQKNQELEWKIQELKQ [4H182-bN]
Result: -2.96

Problem: Follow-up item: DEIAQLKQEIAELEQKNAELKWKNAQLEQ [4H575-bA]
Result: -0.354

Problem: Follow-up item: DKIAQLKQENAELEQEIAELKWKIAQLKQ [4H2702-bA]
Result: -1.27

Problem: Follow-up item: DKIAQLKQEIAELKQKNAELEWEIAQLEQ [4H2673-bA]
Result: 0.276

Problem: Follow-up item: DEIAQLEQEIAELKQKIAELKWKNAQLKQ [4H112-bA]
Result: -0.781
